The measured values listed here are drawn from ChEMBL document CHEMBL4261616.

Target: Long-chain-fatty-acid--AMP ligase FadD32 (Mycobacterium tuberculosis (strain ATCC 25618 / H37Rv)) (UniProt O53580)
Sequence (O53580 whole entry): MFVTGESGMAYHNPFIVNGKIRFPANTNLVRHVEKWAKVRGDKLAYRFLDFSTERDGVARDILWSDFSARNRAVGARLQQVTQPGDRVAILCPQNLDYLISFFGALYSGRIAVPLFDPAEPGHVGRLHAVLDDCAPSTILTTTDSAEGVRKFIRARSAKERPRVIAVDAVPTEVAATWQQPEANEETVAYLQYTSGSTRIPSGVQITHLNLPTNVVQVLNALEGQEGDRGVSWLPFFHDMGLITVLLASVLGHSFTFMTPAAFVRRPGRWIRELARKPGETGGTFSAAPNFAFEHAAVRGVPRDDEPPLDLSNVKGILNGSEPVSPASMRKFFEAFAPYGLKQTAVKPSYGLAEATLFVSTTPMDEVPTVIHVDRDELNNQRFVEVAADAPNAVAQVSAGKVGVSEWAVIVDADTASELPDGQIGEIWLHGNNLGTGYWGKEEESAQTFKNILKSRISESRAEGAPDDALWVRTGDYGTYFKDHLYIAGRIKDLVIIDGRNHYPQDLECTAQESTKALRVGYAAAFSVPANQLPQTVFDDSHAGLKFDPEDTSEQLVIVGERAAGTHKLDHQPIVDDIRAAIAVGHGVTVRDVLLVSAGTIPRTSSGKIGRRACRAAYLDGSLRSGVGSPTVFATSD
Assay: Inhibition of Mycobacterium tuberculosis H37Rv FadD32 assessed as reduction in bacterial viability after 6 days by resazurin dye based fluorescence assay
Sorting guide: entries reporting MIC90 beneath 2 µM go in the met pile, the rest go in the not met pile.

A selection of reference data follows.
Cc1cc2nccc(-c3cncnc3)c2c(C)c1-c1ccc(CN2CCOCC2)cc1
not met
Cc1cc2nc(CO)cc(-c3ccccc3Cl)c2c(C)c1-c1ccncc1
not met
Cc1cccc(C)c1-c1ccnc2cc(C)c(-c3ccc(CN4CCOCC4)cc3)c(C)c12
not met
COc1cccc(-c2ccnc3cc(C)c(-c4ccc(CN5CCOCC5)cc4)c(C)c23)c1Cl
not met
Cc1cc2nc(C(=O)NCCO)cc(-c3ccccc3Cl)c2c(C)c1-c1ccncc1
met

[in] Dear reviewer, please state whether `Cc1cc2nc(C(=O)NC(C)C)cc(-c3ccccc3Cl)c2c(C)c1-c1ccncc1` has MIC90 strictly beneath 2 µM.
[out] not met

[in] Dear reviewer, please state whether `Cc1cc2nc(C(N)=O)cc(-c3ccccc3Cl)c2c(C)c1-c1ccncc1` has MIC90 strictly beneath 2 µM.
[out] met

[in] Dear reviewer, please state whether `Cc1cc2[nH]c(=O)cc(-c3ccccc3)c2c(C)c1-c1ccc(CN2CCOCC2)cc1` has MIC90 strictly beneath 2 µM.
[out] not met

[in] Dear reviewer, please state whether `Cc1cc2nccc(-c3ccccc3C#N)c2c(C)c1-c1ccc(CN2CCOCC2)cc1` has MIC90 strictly beneath 2 µM.
[out] not met

[in] Dear reviewer, please state whether `Cc1cc2nccc(-c3ccccc3C(N)=O)c2c(C)c1-c1ccc(CN2CCOCC2)cc1` has MIC90 strictly beneath 2 µM.
[out] not met

###

Quick reference for MIC90 among some compounds
Biological target: Long-chain-fatty-acid--AMP ligase FadD32 (Mycobacterium tuberculosis (strain ATCC 25618 / H37Rv)) (UniProt O53580)
Experiment: Inhibition of Mycobacterium tuberculosis H37Rv FadD32 assessed as reduction in bacterial viability after 6 days by resazurin dye based fluorescence assay
Unit µM implied. Number only.

Take a look at these entries with their results.
Cc1cc2nc(C(=O)N3CCCC3)cc(-c3ccccc3Cl)c2c(C)c1-c1ccncc1
5
COc1ncccc1-c1ccnc2cc(C)c(-c3ccc(CN4CCOCC4)cc3)c(C)c12
2.5
Cc1cc2nc(C(=O)N(C)C)cc(-c3ccccc3Cl)c2c(C)c1-c1ccncc1
20
Cc1cc2nc(C(=O)N3CCOCC3)cc(-c3ccccc3Cl)c2c(C)c1-c1ccncc1
15

[in] Indicate its recorded MIC90; the compound in question is `Cc1cc2nccc(-c3cccc(Cl)c3)c2c(C)c1-c1ccc(CN2CCOCC2)cc1`
[out] 1.5

[in] Indicate its recorded MIC90; the compound in question is `Cc1cc2occ(-c3ccccc3)c2c(C)c1-c1ccc(CN2CCOCC2)cc1`
[out] 2.5

[in] Indicate its recorded MIC90; the compound in question is `Cc1cc2nc(C(=O)N3CCNCC3)cc(-c3ccccc3Cl)c2c(C)c1-c1ccncc1`
[out] 10

[in] Indicate its recorded MIC90; the compound in question is `CCc1ccccc1CNc1ccnc2cc(C)c(-c3ccc(CN4CCOCC4)cc3)c(C)c12`
[out] 2.5

[in] Indicate its recorded MIC90; the compound in question is `Cc1cc2nccc(-c3ccccc3C(=O)O)c2c(C)c1-c1ccc(CN2CCOCC2)cc1`
[out] 40

[in] Indicate its recorded MIC90; the compound in question is `CCOC(=O)c1cc(-c2ccccc2Cl)c2c(C)c(-c3ccncc3)c(C)cc2n1`
[out] 10

[in] Indicate its recorded MIC90; the compound in question is `Cc1cc2nccc(-c3cccnc3)c2c(C)c1-c1ccc(CN2CCOCC2)cc1`
[out] 5
